Test system: Candida albicans
experiment: Antifungal activity against Candida albicans MTCC 183 at 25 ug/ml
Format: functional
condition.set: read-out: IZ
measurement.label: zone of inhibition at 25 µg/mL
// return the numeric value with its unit appended

# line.notation, measurement.label, test.result
measured = [
    ("Cc1cc(=O)oc2cc(OC(=O)CNN3C=NNC3)ccc12", "zone of inhibition at 25 µg/mL", "13.4 mm"),
    ("Cc1cc(=O)oc2cc(OC(=O)CNc3ccc([N+](=O)[O-])cc3)ccc12", "zone of inhibition at 25 µg/mL", "10.2 mm"),
]

Prompt: For "COC1=CC(=O)C[C@@H](C)[C@]12Oc1c(Cl)c(OC)cc(OC)c1C2=O" , what is its reported zone of inhibition at 25 µg/mL?
Response: 14.2 mm

Prompt: Again, but for "Cc1cc(=O)oc2cc(OC(=O)CNc3nc4ccccc4s3)ccc12"
Response: 12.2 mm

Prompt: Again, but for "COc1ccc(NCC(=O)Oc2ccc3c(C)cc(=O)oc3c2)cc1"
Response: 12.4 mm
